Value source: patent US20170247475A1

ASSAY SYSTEM: VEGF
ASSAY INFO: cell-based or functional assay
MEASUREMENT KIND: % inhibition, VEGF HUVEC proliferation assay (%)
Form entry: value (%) — number only.

Request: Which % inhibition, VEGF HUVEC proliferation assay reading was recorded for the binder VEGFBII024 (VHH, biparatopic bivalent VHH in one chain; also called VEGFBII23B04-40GS-86H09; VEGFBI024) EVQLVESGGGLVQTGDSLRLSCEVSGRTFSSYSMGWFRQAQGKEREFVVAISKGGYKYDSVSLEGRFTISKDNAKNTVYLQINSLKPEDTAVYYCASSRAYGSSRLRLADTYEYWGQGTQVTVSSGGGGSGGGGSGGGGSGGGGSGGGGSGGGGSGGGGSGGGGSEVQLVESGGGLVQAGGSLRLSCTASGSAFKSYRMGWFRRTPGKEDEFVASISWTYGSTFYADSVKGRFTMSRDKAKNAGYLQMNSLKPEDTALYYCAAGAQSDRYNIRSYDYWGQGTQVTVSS ?
Result: 96
